target-desc: biotin-labeled human IL1RAP (human) (UniProt Q9NPH3)
Sequence (Q9NPH3 21-367 limits assumed): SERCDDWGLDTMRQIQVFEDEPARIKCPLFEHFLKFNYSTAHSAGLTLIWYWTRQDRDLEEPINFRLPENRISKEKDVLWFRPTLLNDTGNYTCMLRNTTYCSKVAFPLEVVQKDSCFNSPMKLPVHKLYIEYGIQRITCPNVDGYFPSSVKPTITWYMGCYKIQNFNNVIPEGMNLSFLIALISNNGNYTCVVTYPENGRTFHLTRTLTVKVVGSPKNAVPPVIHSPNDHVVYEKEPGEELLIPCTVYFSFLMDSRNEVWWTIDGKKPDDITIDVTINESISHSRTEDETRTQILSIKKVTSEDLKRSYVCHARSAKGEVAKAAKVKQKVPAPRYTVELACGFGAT
test-description: competition ELISA; competitor: capture mAb001 coated; biotin-hIL1RAP
readout-label: % inhibition (%)

binder | readout-label | measured-result
murine mAb067 (antibody, V domains shown) VH: QVKLHQSGAELAKPGASVKMSCKASGYTFNSYWIHWVKQRPGQGLEWIGYNNPTSGYSEYNQKFTDKATLSADKSSSTAYMQLSSLTSEDSAVYYCVREYGDLFAYWGQGTLVTVSA VL: NIVMTQSPKSMSMSVGERVTLSCKASENVGYSVSWFQQKPDQSPKLLIYGASNRYTGVPDRFTGSGSATDFTLTISTVQAEDLADYHCGQIYIYPYTFGGGTKLEIK | % inhibition | 94
mAb063 (antibody, V domains shown) VH: EVQLQQSGPELVKPGASVKISCKASGYTFTDYYMNWVKQSHGKSLEWIGHINPNSGSTTYTEKFKDKATLTVDKSSSTAYMELRSLTSDDSAVYYCVRRIGKNWHCDVWGTGTTVTVSS VL: DIVLTQSPASLAVSLGQRATISCRASESVNFHGTHLMHWYQQKPGQAPKLLIYAASNLDSGVPARFSGSGSETDFTLNIHPVEEEDAATYFCQQSIEDPFTFGSGTYLEIK | % inhibition | 94
